- Test system: NCI-H23 lung
- procedure-text: NCI tumour cell line growth inhibition, 48 h
TGI for assorted compounds

{"compound": "O=C(OCc1c(-c2ccccc2)nn(-c2ccccc2)c1COC(=O)Oc1ccccc1)Oc1ccccc1", "data-value": "> 100 µM"}
{"compound": "OC(C1CCCC1=N/N=C1/CCCC1C(O)(C(F)(F)Cl)C(F)(F)Cl)(C(F)(F)Cl)C(F)(F)Cl (stereo unspecified)", "data-value": "> 10 µM"}
{"compound": "CCCCCCCCCCCCOC(=S)NC", "data-value": "40.9 µM"}
{"compound": "NC(=O)N/N=C1/CCCC/C1=C\\c1ccccc1", "data-value": "> 100 µM"}
{"compound": "COc1ccc2c(c1)Cc1c-2[nH]c2cc3c(cc2c1=O)OCO3", "data-value": "48.2 µM"}

Given item "C=C1C(=O)O[C@H]2[C@H]1CC/C(COC(=O)NCc1cccc(OC)c1)=C\CC[C@@]1(C)O[C@@H]21" , the value recorded as its TGI is 10.3 µM

Given item "CCOC(=O)c1[nH]n(-c2ccccc2)c(=O)c1C=NC(=S)C(N)=S" , the value recorded as its TGI is > 100 µM

Given item "CC(=O)[CH-]C(=O)c1ccccc1.CC(=O)[CH-]C(=O)c1ccccc1.CC12CC3(C)CC(C)(C1)CC([O-])(C2)C3.CC[O-].[Ti+4]" , the value recorded as its TGI is 34.4 µM

Given item "N#CNc1nc(C(=O)Nc2ccc(Cl)cc2)cc(-c2ccccc2)n1" , the value recorded as its TGI is > 100 µM

Given item CC1(C)OCC(C2OC(=O)C(OCc3ccccc3)=C2OCc2ccccc2)O1 (stereo unspecified) , the value recorded as its TGI is 92.5 µM
